# Experiment description: inhibitors of triacylglycerol accumulation, primary screen, cell-based, uHTS, fluorescence, H9c2 (AID 651582)
# Condition set: H9c2 cells, Nile Red lipid (TAG) fluorescence, at 12.5 µM, cells loaded with 200 µM oleic acid; measured here: DAPI nuclei count viability
The whole screen tested about 230,000 compounds, of which about 1,500 (0.65%) were called active. Only a selection was taken, and actives are over-represented in it overall.
# Lookup of reported DAPI nuclei signal change (viability), lower = more cytotoxic keyed by entry
Property label: DAPI nuclei signal change (viability), lower = more cytotoxic (%)

CC(=O)Nc1ccc(-c2ccnc3c2CC(C(=O)NC(C)C)O3)cc1 (stereo not given)    -1.71
O=C(CSc1n[nH]c(=O)n1-c1ccccc1)Nc1ccccc1C(F)(F)F    4.07
COc1cc(Cl)c(C)cc1NC(=O)CSc1nnc(CN2CCCC2)o1    4.62
CC(=O)NC(c1ccccc1)c1nc(-c2cccc(C(C)C)c2)cs1 (stereo not given)    -1.3
O=C1CC2(CCN(C(=O)COc3ccc(F)cc3)CC2)Oc2ccccc21    -14.6
CC(C)C(=O)N1CCC2(CC1)Oc1ccc(F)cc1C(=O)C21CC(c2ccccc2)=NO1 (stereo not given)    -26.9
CC(=O)NC12CC3CC(C1)CC(C(=O)N1CCN(C(=O)c4ccco4)CC1)(C3)C2    0.13
CC(C)(C)OC(=O)C[C@@H]1C/C=C\C[C@@H](CC(=O)NCCO)C(=O)N[C@H](Cc2c[nH]c3ccccc23)COC1=O    3.2
COc1cccc(-n2c(=S)sc3c(=O)n(-c4ccccc4OC)c(SCC4OCCO4)nc32)c1    -13.5
Cc1ccc2nc(C)cc(N/N=C/c3ccc(F)cc3)c2c1    4.22
CC1=C(C(=O)Nc2cccc(C(=O)NCC(C)c3ccccc3)c2)SCCO1 (stereo not given)    -4.49
CC1=C(C(=O)N(C)C)CC(CC(=O)NCCc2ccccn2)C(=O)N1CCC1=CCCCC1 (stereo not given)    -8.79
Cc1cc(N/N=C\c2ccc(Br)cc2)nc(-n2nc(C)cc2C)n1    -21.7
COC(=O)C1C(=O)c2c([nH]c(C(=O)OCCSC)c2C)CC1C (stereo not given)    -3.66
C(=N\N1CCN(c2ccccn2)CC1)/C1=C(N2CCOCC2)C(=C/c2ccccc2)/CC1    12.6
O=C(O)c1ccc(NN=CC2=C(N3CCOCC3)/C(=C/c3ccccc3)CC2)cc1    1.8
CCCCCC(=O)Nc1ccc2oc(-c3ccncc3)nc2c1    -5.68
COc1cc(/C=C2\Oc3ccc(C#Cc4ccc(O)cc4)cc3C2=O)cc(OC)c1    -0.886
COc1ccc(-c2ccc(CN3C(CC(C)C)C(=O)N(Cc4cn(CC5CCCCC5)nn4)CCS3(=O)=O)cc2)cc1 (stereo not given)    -3.84
COc1ccccc1-n1c(=S)[nH]c2c(sc(=S)n2-c2ccc(C)cc2C)c1=O    -48.2
